# TARGET_ENTITY: PIM1 (Homo sapiens (Human), UniProt P11309)
# Sequence (P11309 whole entry): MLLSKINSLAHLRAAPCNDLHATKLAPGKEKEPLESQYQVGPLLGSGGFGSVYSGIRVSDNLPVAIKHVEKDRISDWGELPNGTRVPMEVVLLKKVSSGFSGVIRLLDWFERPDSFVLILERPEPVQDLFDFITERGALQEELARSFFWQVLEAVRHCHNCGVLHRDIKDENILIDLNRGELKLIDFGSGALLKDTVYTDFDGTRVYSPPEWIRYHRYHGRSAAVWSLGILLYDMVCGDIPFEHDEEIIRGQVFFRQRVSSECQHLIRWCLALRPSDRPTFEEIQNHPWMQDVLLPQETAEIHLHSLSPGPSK
# EXPERIMENT: biochemical
# Assay type: biochemical
# MEASUREMENT_PARAMETERS: 20 pM PIM1, 1 μM FAM-peptide, 10 μM ATP, 90 minutes at room temperature; read-out: PIM1 LC3K (KI)
Property: pKi; scope: individual compounds
Friendly reminder that pKi comes from taking -log10 of the concentration in mol/L.

Solved cases below.
1) Cn1ncc(NC(=O)c2csc(-c3ccc[nH]c3=O)n2)c1[C@@H]1CC[C@@H](N)[C@H](F)CO1 [Example 233] = 9.99
2) Cn1ncc(NC(=O)c2csc(-c3c(F)cc([C@@H]4CCCO4)cc3F)n2)c1[C@@H]1CC[C@@H](N)[C@H](F)CO1 (single isomer, unassigned) [Example 371] = 10.24
3) Cn1ncc(NC(=O)c2nc(-c3c(F)cccc3F)sc2N)c1C1CC(F)C(N)CCO1 (stereo not shown) [Example 140] = 9.33

Next compound, please.
Fill in: pKi of Cn1ncc(NC(=O)c2ccc(F)c(-c3c(F)cc(C4(O)COC4)cc3F)n2)c1[C@@H]1CC[C@@H](N)[C@H](F)CO1 [Example 193] is ___
10.47
